Provide the reported inhibition of each item.
biological target: Prostaglandin G/H synthase 2 (Homo sapiens); experiment: Inhibition of human recombinant COX2 expressed in sf9 cells infected with baculovirus at 10 uM
Express your answer in %, writing the number without its unit.

Noted for `CCC(=O)[N-]S(=O)(=O)c1ccc(-n2nc(C(F)(F)F)cc2-c2ccc3c(c2)CCO3)cc1CO.[Na+]` : its inhibition reads 25

Noted for `CCCC(=O)[N-]S(=O)(=O)c1ccc(-n2nc(C(F)(F)F)cc2-c2ccc(C)cc2)cc1.[Na+]` : its inhibition reads 2

Noted for `CCC(=O)[N-]S(=O)(=O)c1ccc(-n2nc(C(F)F)cc2-c2ccc(OC)c(C)c2)cc1CO.[Na+]` : its inhibition reads 13

Noted for `CCC(=O)[N-]S(=O)(=O)c1ccc(-n2nc(C(F)F)cc2-c2ccc(Br)cc2)cc1CO.[Na+]` : its inhibition reads 14

Noted for `CCC(=O)OCc1cc(-n2nc(C(F)(F)F)cc2-c2ccc(SC)cc2)ccc1S(N)(=O)=O` : its inhibition reads 40

Noted for `CCC(=O)OCc1cc(-n2nc(C(F)(F)F)cc2-c2ccc3c(c2)CCC3)ccc1S(N)(=O)=O` : its inhibition reads 57

Noted for `CCC(=O)OCc1cc(-n2nc(C(F)(F)F)cc2-c2ccc(Br)cc2)ccc1S(N)(=O)=O` : its inhibition reads 65

Noted for `CCC(=O)[N-]S(=O)(=O)c1ccc(-n2nc(C(F)(F)F)cc2-c2ccc(OC)c(C)c2)cc1CO.[Na+]` : its inhibition reads 15

Noted for `CCC(=O)[N-]S(=O)(=O)c1ccc(-n2nc(C(F)(F)F)cc2-c2ccc(Br)cc2)cc1CO.[Na+]` : its inhibition reads 23

Noted for `CCC(=O)OCc1cc(-n2nc(C(F)F)cc2-c2ccc(OC)c(C)c2)ccc1S(N)(=O)=O` : its inhibition reads 75

Noted for `CCC(=O)[N-]S(=O)(=O)c1ccc(-n2nc(C(F)(F)F)cc2-c2ccc3c(c2)CCC3)cc1CO.[Na+]` : its inhibition reads 22

Noted for `CCC(=O)OCc1cc(-n2nc(C(F)F)cc2-c2ccc(Br)cc2)ccc1S(N)(=O)=O` : its inhibition reads 55

Noted for `CCC(=O)OCc1cc(-n2nc(C(F)(F)F)cc2-c2ccc3c(c2)CCO3)ccc1S(N)(=O)=O` : its inhibition reads 61

Noted for `CCC(=O)[N-]S(=O)(=O)c1ccc(-n2nc(C(F)(F)F)cc2-c2ccc(SC)cc2)cc1CO.[Na+]` : its inhibition reads 21

====

target: Prostaglandin G/H synthase 1 (Ovis aries); experiment: Inhibition of microsomal COX1 at 10 uM
Observation type: inhibition

Noted for `CCCC(=O)[N-]S(=O)(=O)c1ccc(-n2nc(C(F)(F)F)cc2-c2ccc(C)cc2)cc1.[Na+]` : its inhibition reads 0%

Noted for `CCC(=O)OCc1cc(-n2nc(C(F)(F)F)cc2-c2ccc(Br)cc2)ccc1S(N)(=O)=O` : its inhibition reads 0%

Noted for `CCC(=O)[N-]S(=O)(=O)c1ccc(-n2nc(C(F)(F)F)cc2-c2ccc(OC)c(C)c2)cc1CO.[Na+]` : its inhibition reads 0%

Noted for `CCC(=O)NS(=O)(=O)c1ccc(-n2nc(C(F)(F)F)cc2-c2ccc3c(c2)CCO3)cc1COC(=O)CC` : its inhibition reads 0%

Noted for `CCC(=O)NS(=O)(=O)c1ccc(-n2nc(C(F)(F)F)cc2-c2ccc(SC)cc2)cc1COC(=O)CC` : its inhibition reads 0%

Noted for `CCC(=O)[N-]S(=O)(=O)c1ccc(-n2nc(C(F)(F)F)cc2-c2ccc(Br)cc2)cc1CO.[Na+]` : its inhibition reads 0%

Noted for `CCC(=O)[N-]S(=O)(=O)c1ccc(-n2nc(C(F)(F)F)cc2-c2ccc(SC)cc2)cc1CO.[Na+]` : its inhibition reads 0%

Noted for `CCC(=O)OCc1cc(-n2nc(C(F)(F)F)cc2-c2ccc3c(c2)CCO3)ccc1S(N)(=O)=O` : its inhibition reads 0%

Noted for `CCC(=O)[N-]S(=O)(=O)c1ccc(-n2nc(C(F)(F)F)cc2-c2ccc3c(c2)CCO3)cc1CO.[Na+]` : its inhibition reads 5%

Noted for `CCC(=O)OCc1cc(-n2nc(C(F)F)cc2-c2ccc(OC)c(C)c2)ccc1S(N)(=O)=O` : its inhibition reads 0%

Noted for `CCC(=O)OCc1cc(-n2nc(C(F)(F)F)cc2-c2ccc(SC)cc2)ccc1S(N)(=O)=O` : its inhibition reads 0%

Noted for `CCC(=O)[N-]S(=O)(=O)c1ccc(-n2nc(C(F)F)cc2-c2ccc(OC)c(C)c2)cc1CO.[Na+]` : its inhibition reads 0%

Noted for `CCC(=O)NS(=O)(=O)c1ccc(-n2nc(C(F)(F)F)cc2-c2ccc(Br)cc2)cc1COC(=O)CC` : its inhibition reads 0%

Noted for `CCC(=O)NS(=O)(=O)c1ccc(-n2nc(C(F)(F)F)cc2-c2ccc3c(c2)CCC3)cc1COC(=O)CC` : its inhibition reads 0%

Noted for `CCC(=O)OCc1cc(-n2nc(C(F)(F)F)cc2-c2ccc3c(c2)CCC3)ccc1S(N)(=O)=O` : its inhibition reads 0%

Noted for `CCC(=O)NS(=O)(=O)c1ccc(-n2nc(C(F)F)cc2-c2ccc(OC)c(C)c2)cc1COC(=O)CC` : its inhibition reads 0%

Noted for `CCC(=O)NS(=O)(=O)c1ccc(-n2nc(C(F)(F)F)cc2-c2ccc(OC)c(C)c2)cc1COC(=O)CC` : its inhibition reads 0%

====

molecular target: Prostaglandin G/H synthase 1 (Ovis aries) (UniProt P05979); assay: Inhibition of microsomal COX1 at 10 uM
Sequence (P05979 whole entry, looked up): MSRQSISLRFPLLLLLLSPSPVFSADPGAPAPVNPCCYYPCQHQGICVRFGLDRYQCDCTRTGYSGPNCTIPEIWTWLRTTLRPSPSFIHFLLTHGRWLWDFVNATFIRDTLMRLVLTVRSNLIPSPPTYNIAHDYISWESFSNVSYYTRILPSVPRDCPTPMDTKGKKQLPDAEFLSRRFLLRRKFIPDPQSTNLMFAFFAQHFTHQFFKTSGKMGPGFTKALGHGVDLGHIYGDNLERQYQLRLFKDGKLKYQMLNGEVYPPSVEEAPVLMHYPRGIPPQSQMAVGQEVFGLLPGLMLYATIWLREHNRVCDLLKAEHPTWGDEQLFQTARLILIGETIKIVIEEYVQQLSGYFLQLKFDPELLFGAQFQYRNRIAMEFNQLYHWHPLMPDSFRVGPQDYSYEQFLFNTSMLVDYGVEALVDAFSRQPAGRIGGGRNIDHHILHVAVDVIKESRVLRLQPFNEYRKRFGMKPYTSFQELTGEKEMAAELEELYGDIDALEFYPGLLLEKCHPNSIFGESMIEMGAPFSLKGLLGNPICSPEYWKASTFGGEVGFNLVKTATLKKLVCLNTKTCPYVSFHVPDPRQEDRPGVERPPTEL
Observation type: inhibition (%)
Express your answer in %, writing the number without its unit.

Noted for `CCC(=O)OCc1cc(-n2nc(C(F)(F)F)cc2-c2ccc(OC)c(C)c2)ccc1S(N)(=O)=O` : its inhibition reads 12

Noted for `CCC(=O)[N-]S(=O)(=O)c1ccc(-n2nc(C(F)F)cc2-c2ccc(Br)cc2)cc1CO.[Na+]` : its inhibition reads 0

Noted for `CCC(=O)[N-]S(=O)(=O)c1ccc(-n2nc(C(F)(F)F)cc2-c2ccc3c(c2)CCC3)cc1CO.[Na+]` : its inhibition reads 0

Noted for `CCC(=O)OCc1cc(-n2nc(C(F)F)cc2-c2ccc(Br)cc2)ccc1S(N)(=O)=O` : its inhibition reads 5

====

test: AUC (0-infinity) in Wistar rat at 100 mg/kg, po; type: ADME, organism-based; set-up: time infinity, dose 100 mg/kg, route oral; details: plasma
Observation type: AUC(0-inf) (µg·h/mL)
Express your answer in µg·h/mL, writing the number without its unit.

Noted for `CCC(=O)[N-]S(=O)(=O)c1ccc(-n2nc(C(F)F)cc2-c2ccc(OC)c(C)c2)cc1CO.[Na+]` : its AUC(0-inf) reads 114

Noted for `CCC(=O)[N-]S(=O)(=O)c1ccc(-n2nc(C(F)(F)F)cc2-c2ccc(OC)c(C)c2)cc1CO.[Na+]` : its AUC(0-inf) reads 149

Noted for `CCC(=O)[N-]S(=O)(=O)c1ccc(-n2nc(C(F)F)cc2-c2ccc(Br)cc2)cc1CO.[Na+]` : its AUC(0-inf) reads 321

Noted for `NS(=O)(=O)c1ccc(-n2nc(C(F)F)cc2-c2ccc(Br)cc2)cc1CO` : its AUC(0-inf) reads 265

Noted for `COc1ccc(-c2cc(C(F)(F)F)nn2-c2ccc(S(N)(=O)=O)c(CO)c2)cc1C` : its AUC(0-inf) reads 112
